Here, each record is paired with measured inhibition in vivo at 200 mg/kg data.
System: Rattus norvegicus
Assay Method Text: Antiinflammatory activity measured as the percentage inhibition of edema in carrageenan induced rat paw after peroral administration of 200 mg/kg of compound
Format: functional
Reported Conditions: route oral
Measured Parameter: inhibition in vivo at 200 mg/kg (%)

molecule=CN(C)c1ccc(-c2nc3c4ccccc4ccc3n2C)cc1 units_text=% experimental_value=68
molecule=COc1ccc(-c2nc3c4ccccc4ccc3n2C)cc1 units_text=% experimental_value=53
molecule=Cc1cc(-c2nc3c4ccccc4ccc3n2C)cc(C)c1N(C)C units_text=% experimental_value=14
molecule=COc1ccc(-c2nc3c4ccccc4ccc3n2CC(C)C)cc1 units_text=% experimental_value=30
molecule="COc1ccc(-c2nc3c4ccccc4ccc3n2C(C)C)cc1 [TOMOXIPROLE]" units_text=% experimental_value=48
molecule=Cn1c(-c2ccc(OCC(=O)O)cc2)nc2c3ccccc3ccc21 units_text=% experimental_value=7

----------
Test system: Rattus norvegicus
Assay Method Text: Compound was evaluated for its antiinflammatory activity by adjuvant-induced polyarthritis test in rats at a dosage of 200 mg/kg administered orally
Format: functional
Reported Conditions: route oral
Flag rule - Arthritis scores less than 20 flags Fulfilled; the remaining entries get Not fulfilled.

molecule=Cn1c(-c2ccncc2)nc2c3ccccc3ccc21 system_name="Rattus norvegicus" assigned_label=Fulfilled
molecule=CCOc1ccc(-c2nc3c4ccccc4ccc3n2C)cc1 system_name="Rattus norvegicus" assigned_label="Not fulfilled"
molecule=CCn1c(-c2ccc(OC)cc2)nc2c3ccccc3ccc21 system_name="Rattus norvegicus" assigned_label="Not fulfilled"
molecule=Cn1c(-c2cccs2)nc2c3ccccc3ccc21 system_name="Rattus norvegicus" assigned_label="Not fulfilled"
molecule=COc1ccc(-c2nc3c4ccccc4ccc3n2C)cc1 system_name="Rattus norvegicus" assigned_label="Not fulfilled"

----------
Test system: Rattus norvegicus
Assay Method Text: Compound was evaluated for its antiinflammatory activity by adjuvant-induced polyarthritis test in rats at a dosage of 100 mg/kg administered orally
Type: functional
Reported Conditions: route oral
Measured Parameter: Inflammation units

molecule=C=Cn1c(-c2ccc(OC)cc2)nc2c3ccccc3ccc21 experimental_value=61
molecule=Cc1cc(-c2nc3c4ccccc4ccc3n2C)ccc1N(C)C experimental_value=84
molecule=C=C(C)n1c(-c2ccc(OC)cc2)nc2c3ccccc3ccc21 experimental_value=68
molecule=COc1ccc(-c2nc3c4ccccc4ccc3n2C(C)C)cc1 experimental_value=93

----------
System: Rattus norvegicus
Assay Method Text: Antiinflammatory activity was measured as the percentage inhibition of edema in carrageenan induced rat paw after peroral administration of 100 mg/kg of compound
Assay type: functional
Reported Conditions: route oral
Rule: inhibition in vivo at 100 mg/kg of 50% or more gives label 1; anything lower gives label 0.

compound=CNc1ccc(-c2nc3c4ccccc4ccc3n2C)cc1 assigned_label="label 0"
compound=Cn1c(-c2ccccc2)nc2c3ccccc3ccc21 assigned_label="label 0"
compound=Cc1cc(-c2nc3c4ccccc4ccc3n2C)ccc1N(C)C assigned_label="label 1"
compound=COc1ccc(-c2nc3c4ccccc4ccc3n2C(C)C)cc1 assigned_label="label 0"
compound=COc1ccc(-c2nc3c4ccccc4ccc3n2C)cc1C assigned_label="label 0"
compound=CC(=O)Nc1ccc(-c2nc3c4ccccc4ccc3n2C)cc1 assigned_label="label 0"
compound=C=Cn1c(-c2ccc(OC)cc2)nc2c3ccccc3ccc21 assigned_label="label 0"
compound=CN(C)c1ccc(-c2nc3c4ccccc4ccc3n2C)cc1 assigned_label="label 1"
compound=C=C(C)n1c(-c2ccc(OC)cc2)nc2c3ccccc3ccc21 assigned_label="label 1"
compound=Cn1c(-c2ccncc2)nc2c3ccccc3ccc21 assigned_label="label 0"
compound="COc1ccc(-c2nc3c4ccccc4ccc3n2C(C)CO)cc1 (stereo unspecified)" assigned_label="label 0"

Values from ChEMBL document CHEMBL1122649
